The measurements presented in this section are drawn from the Immune Epitope Database (IEDB).

Target: HLA-A*02:03
Assay: IEDB peptide-MHC binding, purified MHC/competitive/radioactivity; filed as Kd, often an IC50 or EC50 that approximates it; bounds were set here for any values at or beyond the usual limits of such assays
Settings: source organism: Dengue virus 2 Jamaica/1409/1983
// reported Kd per item
READOUT LABEL: Kd

| SEQUENCE | RESULT |
| --- | --- |
| ILIRTGLLV | 16.3 nM |
| SLSVSLVLV | 1.86 nM |

----------
Biological target: HLA-B*83:01
Assay: IEDB peptide-MHC binding, purified MHC/competitive/fluorescence; filed as Kd, often an IC50 or EC50 that approximates it; bounds were set here for any values at or beyond the usual limits of such assays
Conditions: source organism: Bacillus anthracis str. A0488
pKd: −log10 of the molar value.

| SEQUENCE | pKd |
| --- | --- |
| RFFKHFMSL | ≤ 5.30 |

----------
Molecular target: HLA-B*15:01
Experiment: IEDB peptide-MHC binding, purified MHC/direct/fluorescence; filed as Kd, often an IC50 or EC50 that approximates it; bounds were set here for any values at or beyond the usual limits of such assays
Settings: source organism: Mycobacterium tuberculosis

| SEQUENCE | Kd |
| --- | --- |
| QVFKGVVIR | ≥ 20 µM |
| SPRSRNRSF | ≥ 20 µM |
| APAKKAAPA | ≥ 20 µM |

----------
Target: HLA-B*40:01
Assay: IEDB peptide-MHC binding, purified MHC/competitive/fluorescence; filed as Kd, often an IC50 or EC50 that approximates it; bounds were set here for any values at or beyond the usual limits of such assays
Details: source organism: Mycobacterium leprae
READOUT LABEL: Kd

| SEQUENCE | RESULT |
| --- | --- |
| TVGYMYIMK | ≥ 20 µM |

----------
Target: HLA-A*33:01
Assay: IEDB peptide-MHC binding, purified MHC/competitive/radioactivity; filed as Kd, often an IC50 or EC50 that approximates it; bounds were set here for any values at or beyond the usual limits of such assays
Details: source organism: Mammarenavirus whitewaterense
pKd: −log10 of the molar value.

| SEQUENCE | pKd |
| --- | --- |
| GVFKNPCTSH | ≤ 4.15 |

----------
Target: HLA-B*39:01
Test: IEDB peptide-MHC binding, purified MHC/competitive/fluorescence; filed as Kd, often an IC50 or EC50 that approximates it; bounds were set here for any values at or beyond the usual limits of such assays
Settings: source organism: Choclo virus

| SEQUENCE | Kd |
| --- | --- |
| VMGVIGFGF | ≥ 20 µM |

----------
Target: HLA-A*68:02
Assay: IEDB peptide-MHC binding, purified MHC/direct/fluorescence; filed as Kd, often an IC50 or EC50 that approximates it; bounds were set here for any values at or beyond the usual limits of such assays
Settings: source organism: Choclo virus
pKd: −log10 of the molar value.

| SEQUENCE | pKd |
| --- | --- |
| GSFRKICGF | ≤ 4.70 |

----------
Molecular target: HLA-B*39:01
Assay: IEDB peptide-MHC binding, purified MHC/competitive/fluorescence; filed as Kd, often an IC50 or EC50 that approximates it; bounds were set here for any values at or beyond the usual limits of such assays
Settings: source organism: Influenza A virus (A/Yokohama/22/2002(H1N2))
pKd: −log10 of the molar value.

| SEQUENCE | pKd |
| --- | --- |
| WTGMVDGWY | ≤ 4.70 |

----------
Biological target: HLA-B*15:01
Assay: IEDB peptide-MHC binding, purified MHC/direct/fluorescence; filed as Kd, often an IC50 or EC50 that approximates it; bounds were set here for any values at or beyond the usual limits of such assays
Settings: source organism: Brucella abortus
// reported Kd per item

| SEQUENCE | QUALIFIER | Kd, nM |
| --- | --- | --- |
| GRKTPLLCF | ≥ | 20000 |
| KLYERNTAF | = | 57.8 |

----------
Target: HLA-B*57:01
Assay: IEDB peptide-MHC binding, purified MHC/competitive/radioactivity; filed as Kd, often an IC50 or EC50 that approximates it; bounds were set here for any values at or beyond the usual limits of such assays
Conditions: source organism: Dengue virus 3 Martinique/1243/1999
READOUT LABEL: Kd (nM)

| SEQUENCE | ASSAYED TARGET | RESULT |
| --- | --- | --- |
| TTRMENLLW | HLA-B*57:01 | 5.23 |
| ATLLVWHTW | HLA-B*57:01 | 2.1 |
| NASDRMGMGV | HLA-B*57:01 | 722 |

----------
Molecular target: HLA-A*33:01
Experiment: IEDB peptide-MHC binding, purified MHC/competitive/radioactivity; filed as Kd, often an IC50 or EC50 that approximates it; bounds were set here for any values at or beyond the usual limits of such assays
Settings: source organism: Mammarenavirus machupoense

| SEQUENCE | ASSAYED TARGET | Kd |
| --- | --- | --- |
| DTNLITCNDH | HLA-A*33:01 | ≥ 30.8 µM |

----------
Target: HLA-B*27:03
Experiment: IEDB peptide-MHC binding, purified MHC/competitive/fluorescence; filed as Kd, often an IC50 or EC50 that approximates it; bounds were set here for any values at or beyond the usual limits of such assays
Conditions: source organism: Giardia lamblia ATCC 50803
pKd: −log10 of the molar value.
READOUT LABEL: pKd

| SEQUENCE | ASSAYED TARGET | RESULT |
| --- | --- | --- |
| MARPADASM | HLA-B*27:03 | ≤ 4.70 |

----------
Biological target: HLA-B*15:01
Assay: IEDB peptide-MHC binding, purified MHC/direct/fluorescence; filed as Kd, often an IC50 or EC50 that approximates it; bounds were set here for any values at or beyond the usual limits of such assays
Conditions: source organism: Escherichia coli O157:H7
pKd: −log10 of the molar value.
READOUT LABEL: pKd

| SEQUENCE | ASSAYED TARGET | RESULT |
| --- | --- | --- |
| PSSKPDWFY | HLA-B*15:01 | 4.82 |

----------
Target: HLA-C*03:03
Assay: IEDB peptide-MHC binding, purified MHC/direct/fluorescence; filed as Kd, often an IC50 or EC50 that approximates it; bounds were set here for any values at or beyond the usual limits of such assays
Details: source organism: Burkholderia mallei SAVP1
pKd: −log10 of the molar value.
READOUT LABEL: pKd

| SEQUENCE | READOUT LABEL | RESULT |
| --- | --- | --- |
| YVTPRALEL | pKd | ≥ 9.00 |

----------
Biological target: HLA-B*51:01
Experiment: IEDB peptide-MHC binding, purified MHC/direct/fluorescence; filed as Kd, often an IC50 or EC50 that approximates it; bounds were set here for any values at or beyond the usual limits of such assays
Conditions: source organism: Escherichia coli O157:H7 str. EC869
READOUT LABEL: Kd

| SEQUENCE | READOUT LABEL | RESULT |
| --- | --- | --- |
| YGSWFGLIY | Kd | ≥ 20 µM |

----------
Target: HLA-A*26:01
Experiment: IEDB peptide-MHC binding, purified MHC/direct/fluorescence; filed as Kd, often an IC50 or EC50 that approximates it; bounds were set here for any values at or beyond the usual limits of such assays
Details: source organism: Listeria monocytogenes serotype 4b str. H7858
pKd: −log10 of the molar value.

| SEQUENCE | pKd |
| --- | --- |
| ERYPGGVSL | ≤ 4.70 |
| FPDGKPFTL | ≤ 4.70 |

----------
Target: HLA-A*02:03
Assay: IEDB peptide-MHC binding, purified MHC/competitive/fluorescence; filed as Kd, often an IC50 or EC50 that approximates it; bounds were set here for any values at or beyond the usual limits of such assays
Settings: source organism: Homo sapiens
pKd: −log10 of the molar value.
READOUT LABEL: pKd

| SEQUENCE | ASSAYED TARGET | RESULT |
| --- | --- | --- |
| IRVEGNLRV | HLA-A*02:03 | ≤ 4.70 |

----------
Biological target: HLA-B*40:01
Test: IEDB peptide-MHC binding, purified MHC/direct/fluorescence; filed as Kd, often an IC50 or EC50 that approximates it; bounds were set here for any values at or beyond the usual limits of such assays
Conditions: source organism: Brucella abortus
pKd: −log10 of the molar value.
// reported pKd per item

| SEQUENCE | pKd |
| --- | --- |
| GRKTPLLCF | ≤ 4.70 |
| KLYERNTAF | ≤ 4.70 |

----------
// reported Kd per item
Target: HLA-A*33:01
Assay: IEDB peptide-MHC binding, purified MHC/competitive/radioactivity; filed as Kd, often an IC50 or EC50 that approximates it; bounds were set here for any values at or beyond the usual limits of such assays
Conditions: source organism: SARS coronavirus Tor2
READOUT LABEL: Kd

| SEQUENCE | READOUT LABEL | RESULT |
| --- | --- | --- |
| SFGGASCCLY | Kd | 3.77 µM |
| ATFSVPMEK | Kd | 14.5 µM |
| SSNVANYQK | Kd | ≥ 77.7 µM |
| TFFIFNKLVK | Kd | 1.37 µM |
| VTGLFKDCSK | Kd | ≥ 57.1 µM |
| KTQFNYFKK | Kd | ≥ 77.3 µM |
| VFHLYLQYIR | Kd | 0.174 µM |
| TSFGPLVRK | Kd | 5.25 µM |
| ALALLLLDR | Kd | ≥ 51.7 µM |
| RAFDIYNEK | Kd | ≥ 77.7 µM |
| MSLYMAISPK | Kd | 1.87 µM |
| SQILPDPLK | Kd | ≥ 55.9 µM |
| GVAMPNLYK | Kd | 14.8 µM |
| ALYEQVVMDY | Kd | ≥ 27.1 µM |
| VVMDYLDNLK | Kd | ≥ 46.9 µM |
| NTCDGNTFTY | Kd | 13.2 µM |
| QQQQGQTVTK | Kd | ≥ 70 µM |
